- subjectOfTest: rh-α5β1 (Homo sapiens, UniProt P05556+P08648)
- Sequence (P08648 42-894 limits assumed): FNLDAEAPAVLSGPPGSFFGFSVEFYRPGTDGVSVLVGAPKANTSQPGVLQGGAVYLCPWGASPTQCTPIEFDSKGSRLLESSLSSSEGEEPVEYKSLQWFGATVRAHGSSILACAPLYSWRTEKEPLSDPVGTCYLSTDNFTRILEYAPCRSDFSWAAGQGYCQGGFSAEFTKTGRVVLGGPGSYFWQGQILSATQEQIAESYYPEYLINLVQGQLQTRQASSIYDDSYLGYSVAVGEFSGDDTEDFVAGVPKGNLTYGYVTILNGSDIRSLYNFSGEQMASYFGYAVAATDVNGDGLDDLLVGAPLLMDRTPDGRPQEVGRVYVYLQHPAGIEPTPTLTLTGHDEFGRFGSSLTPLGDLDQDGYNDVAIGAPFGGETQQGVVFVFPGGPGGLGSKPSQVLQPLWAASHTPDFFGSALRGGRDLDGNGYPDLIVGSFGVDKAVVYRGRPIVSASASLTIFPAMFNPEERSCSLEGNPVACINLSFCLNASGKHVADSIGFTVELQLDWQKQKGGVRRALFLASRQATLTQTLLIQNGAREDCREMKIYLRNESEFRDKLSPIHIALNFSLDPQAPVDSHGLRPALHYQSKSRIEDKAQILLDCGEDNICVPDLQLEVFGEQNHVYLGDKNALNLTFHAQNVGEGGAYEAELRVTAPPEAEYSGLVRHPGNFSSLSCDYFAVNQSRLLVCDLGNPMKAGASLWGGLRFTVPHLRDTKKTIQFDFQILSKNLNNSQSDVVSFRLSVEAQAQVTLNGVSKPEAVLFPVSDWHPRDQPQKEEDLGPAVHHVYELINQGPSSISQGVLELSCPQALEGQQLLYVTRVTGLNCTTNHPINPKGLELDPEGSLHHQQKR
- Sequence (P08648 895-995 limits assumed): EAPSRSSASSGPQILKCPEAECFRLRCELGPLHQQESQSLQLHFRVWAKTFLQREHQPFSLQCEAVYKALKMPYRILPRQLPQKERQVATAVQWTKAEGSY
- Sequence (P05556 21-728 limits assumed): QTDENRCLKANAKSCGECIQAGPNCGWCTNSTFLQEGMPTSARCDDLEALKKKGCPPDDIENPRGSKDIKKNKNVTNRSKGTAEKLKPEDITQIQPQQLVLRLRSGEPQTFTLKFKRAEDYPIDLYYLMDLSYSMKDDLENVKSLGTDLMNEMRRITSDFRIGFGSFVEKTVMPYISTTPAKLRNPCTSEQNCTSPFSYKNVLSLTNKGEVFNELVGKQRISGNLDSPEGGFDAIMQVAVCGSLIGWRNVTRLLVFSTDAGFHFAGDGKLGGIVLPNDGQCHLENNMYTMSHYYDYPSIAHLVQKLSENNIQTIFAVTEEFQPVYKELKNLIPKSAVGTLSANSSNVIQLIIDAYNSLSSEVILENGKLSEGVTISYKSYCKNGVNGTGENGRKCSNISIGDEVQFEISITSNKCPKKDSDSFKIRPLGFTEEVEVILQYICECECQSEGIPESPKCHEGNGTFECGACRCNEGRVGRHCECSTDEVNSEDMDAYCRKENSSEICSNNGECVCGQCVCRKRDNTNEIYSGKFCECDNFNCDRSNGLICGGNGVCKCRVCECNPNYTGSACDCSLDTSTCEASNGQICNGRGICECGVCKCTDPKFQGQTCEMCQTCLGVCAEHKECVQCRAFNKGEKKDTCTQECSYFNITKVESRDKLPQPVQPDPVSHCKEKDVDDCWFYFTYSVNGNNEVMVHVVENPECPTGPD
- methodDescription: Competition binding studies by Biolayer Interferometry (epitope groups)
- reportedConditions: immobilized mAb C-14D12; secondary mAb pre-mixed with 20 nM rh-α5β1; relative to antigen alone
quantityMeasured: % Response (%)
Give bare numbers, in %.

[
  {
    "molecule": "A2-3B06: anti-α5β1 antibody, VH SEQ ID NO:42, VL SEQ ID NO:43 (antibody, V domains shown, A2-3B06 VH Sequence; A2-3B06 VL Sequence) VH: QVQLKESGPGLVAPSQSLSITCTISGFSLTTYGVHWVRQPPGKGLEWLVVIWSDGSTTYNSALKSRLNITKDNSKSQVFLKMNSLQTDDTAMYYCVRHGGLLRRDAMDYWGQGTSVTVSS VL: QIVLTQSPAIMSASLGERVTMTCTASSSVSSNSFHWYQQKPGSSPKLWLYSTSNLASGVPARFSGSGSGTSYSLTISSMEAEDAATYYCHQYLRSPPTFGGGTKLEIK",
    "measuredResult": 53.28
  },
  {
    "molecule": "C-14D12: anti-α5β1 antibody, VH SEQ ID NO:109, VL SEQ ID NO:110; tested as mouse hybridoma antibody and as human IgG4 chimera (antibody, V domains shown, C-14D12 VH Sequence; C-14D12 VL Sequence, tested as mouse hybridoma antibody and as human IgG4 chimera) VH: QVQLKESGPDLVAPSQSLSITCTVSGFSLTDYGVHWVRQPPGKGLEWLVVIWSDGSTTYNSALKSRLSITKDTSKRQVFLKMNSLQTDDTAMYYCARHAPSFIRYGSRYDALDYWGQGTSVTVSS VL: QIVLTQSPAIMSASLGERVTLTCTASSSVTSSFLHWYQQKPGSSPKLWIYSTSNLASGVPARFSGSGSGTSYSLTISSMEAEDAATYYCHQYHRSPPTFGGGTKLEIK",
    "measuredResult": "−50.49"
  }
]

Parameter requested: % Response. Apply to each item below.
1. A2-5D10: anti-α5β1 antibody, VH SEQ ID NO:51, VL SEQ ID NO:52 (antibody, V domains shown, A2-5D10 VH Sequence; A2-5D10 VL Sequence) VH: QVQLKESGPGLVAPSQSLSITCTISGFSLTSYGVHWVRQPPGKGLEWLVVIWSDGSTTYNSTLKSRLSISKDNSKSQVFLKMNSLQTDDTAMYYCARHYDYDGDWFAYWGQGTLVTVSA VL: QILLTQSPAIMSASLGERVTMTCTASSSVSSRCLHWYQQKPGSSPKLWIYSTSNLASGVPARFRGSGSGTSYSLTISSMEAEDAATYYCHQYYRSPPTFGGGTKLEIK
2. A2-7F01: anti-α5β1 antibody, VH SEQ ID NO:91, VL SEQ ID NO:92 (antibody, V domains shown, A2-7F01 VH Sequence; A2-7F01 VL Sequence) VH: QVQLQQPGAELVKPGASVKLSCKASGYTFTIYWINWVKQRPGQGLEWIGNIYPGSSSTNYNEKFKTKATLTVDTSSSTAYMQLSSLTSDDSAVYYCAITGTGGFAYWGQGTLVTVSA VL: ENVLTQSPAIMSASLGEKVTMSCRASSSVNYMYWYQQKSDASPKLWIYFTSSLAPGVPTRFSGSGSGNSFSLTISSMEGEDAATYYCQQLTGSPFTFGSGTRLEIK
3. A2-7A05: anti-α5β1 antibody, VH SEQ ID NO:77, VL SEQ ID NO:78; tested as mouse hybridoma antibody and as human IgG4 chimera (antibody, V domains shown, A2-7A05 VH Sequence; A2-7A05 VL Sequence, tested as mouse hybridoma antibody and as human IgG4 chimera) VH: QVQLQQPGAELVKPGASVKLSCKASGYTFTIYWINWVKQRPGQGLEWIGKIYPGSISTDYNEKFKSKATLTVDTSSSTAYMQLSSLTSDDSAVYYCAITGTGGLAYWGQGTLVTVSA VL: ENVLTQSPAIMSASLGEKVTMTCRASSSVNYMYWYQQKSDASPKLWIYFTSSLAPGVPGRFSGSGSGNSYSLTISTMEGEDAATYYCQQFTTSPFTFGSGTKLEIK

1: 106.12; 2: 133.09; 3: 139.39
